# SYSTEM TESTED: Cytochrome P450 3A4 (Homo sapiens, UniProt P08684)
# Sequence (P08684 whole entry): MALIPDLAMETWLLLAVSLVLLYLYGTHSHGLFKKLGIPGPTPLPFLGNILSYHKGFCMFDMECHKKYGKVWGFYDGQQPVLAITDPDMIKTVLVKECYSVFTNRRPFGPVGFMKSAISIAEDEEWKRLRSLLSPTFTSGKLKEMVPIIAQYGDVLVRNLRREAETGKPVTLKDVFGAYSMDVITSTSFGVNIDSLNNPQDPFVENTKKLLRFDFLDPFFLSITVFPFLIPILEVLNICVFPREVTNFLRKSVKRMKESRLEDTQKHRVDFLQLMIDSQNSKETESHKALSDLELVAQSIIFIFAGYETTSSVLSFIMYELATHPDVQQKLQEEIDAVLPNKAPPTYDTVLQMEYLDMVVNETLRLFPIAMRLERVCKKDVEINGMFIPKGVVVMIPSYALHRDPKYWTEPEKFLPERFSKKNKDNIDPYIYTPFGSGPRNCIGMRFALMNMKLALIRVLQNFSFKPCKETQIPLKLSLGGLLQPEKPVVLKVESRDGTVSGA
# PROCEDURE DETAILS: Inhibition of CYP3A4 in human liver microsomes using midazolam as substrate in presence of NADPH
# Type: ADME, Microsome
TEST READOUT: IC50

* O=C1CCN(c2cc(C(=O)N3CCC(CC4CCN(c5ccc(-c6cnc7[nH]cc(-c8cnn(CC(F)(F)F)c8)c7n6)cn5)CC4)CC3)ccc2Cl)C(=O)N1 | > 10 µM

###

# PROCEDURE DETAILS: Tmax in male Sprague-Dawley rat at 100 mg/kg/day, po measured at day 1
# Format: ADME, organism-based
# ASSAY SETUP: in vivo, time 1 day
TEST READOUT: Tmax (h)

• O=C1CCN(c2cc(C(=O)N3CCC(CC4CCN(c5ccc(-c6cnc7[nH]cc(-c8cnn(CC(F)(F)F)c8)c7n6)cn5)CC4)CC3)ccc2Cl)C(=O)N1 = 7.5
